Molecular target: T1, Filamin A domains 4-6, wild type (human, UniProt P21333 571-861)
T1 sequence (looked up): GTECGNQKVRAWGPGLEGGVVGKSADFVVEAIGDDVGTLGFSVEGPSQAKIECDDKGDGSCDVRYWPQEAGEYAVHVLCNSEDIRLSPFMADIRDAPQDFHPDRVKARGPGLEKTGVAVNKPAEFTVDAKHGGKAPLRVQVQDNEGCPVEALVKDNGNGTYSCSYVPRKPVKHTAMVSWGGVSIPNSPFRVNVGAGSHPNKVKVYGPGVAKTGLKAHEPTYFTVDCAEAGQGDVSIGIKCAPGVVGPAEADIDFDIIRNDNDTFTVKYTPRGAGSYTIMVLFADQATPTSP
Assay: SPR
OBSERVED_PROPERTY: Kd

Item: PLHSDDSDSDERNSDGAVTQNKTNISTASATVSAA (domain or fragment, UniProt Q05209 600-634, looked up) [PTPN12–600-634] | Kd: > 10 mM

For PTPN12 600–673 (domain or fragment, UniProt Q05209 600-673, looked up) PLHSDDSDSDERNSDGAVTQNKTNISTASATVSAATSTESISTRKVLPMSIARHNIAGTTHSGAEKDVDVSEDS the binder record lists Kd as > 10 mM

Please fill in: Kd reported for PTPN12 C-terminal domain (600–780) (domain or fragment, UniProt Q05209 600-780, looked up) PLHSDDSDSDERNSDGAVTQNKTNISTASATVSAATSTESISTRKVLPMSIARHNIAGTTHSGAEKDVDVSEDSPPPLPERTPESFVLASEHNTPVRSEWSELQSQERSEQKKSEGLITSENEKCDHPAGGIHYEMCIECPPTFSDKREQISENPTEATDIGFGNRCGKPKGPRDPPSEWT = ~0.00033 mM
